// IC50 lookup, one value per entry
Target chain: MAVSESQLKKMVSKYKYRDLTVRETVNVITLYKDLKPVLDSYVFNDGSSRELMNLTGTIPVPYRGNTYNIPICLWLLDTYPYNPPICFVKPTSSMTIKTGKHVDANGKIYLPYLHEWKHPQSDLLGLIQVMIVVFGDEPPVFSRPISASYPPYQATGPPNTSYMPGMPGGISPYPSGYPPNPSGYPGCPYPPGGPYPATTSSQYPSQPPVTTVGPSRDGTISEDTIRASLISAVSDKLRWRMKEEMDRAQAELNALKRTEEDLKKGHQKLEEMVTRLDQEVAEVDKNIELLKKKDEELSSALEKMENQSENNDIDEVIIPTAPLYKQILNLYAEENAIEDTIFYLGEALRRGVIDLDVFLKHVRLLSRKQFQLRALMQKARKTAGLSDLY
*1 amine or outer side, *2 acyl side, *3 side chain or, on linkers, in order; H or OH if unused. Where a SMILES comes first, the peptide text is derived from it. [ ]: non-standard residue; d: D form. The star is where a group is joined. ξ: configuration not given here. Fluorescein(5-NHCS) = O=C1OC2(c3ccc(O)cc3Oc3cc(O)ccc32)c2cc(NC(=S)*)ccc21; X10 = O=C([C@@H]1C[C@H](O/N=C\c2c(F)c(F)c(F)c(F)c2F)CN1[*:1])[*:2]; X24 = O=C([C@@H]1[C@@H](O/N=C\c2ccccc2)CCN1[*:1])[*:2]; ξPip = O=C(O)C1CCCCN1; Ava = NCCCCC(=O)O
Report only the number, with the unit µM understood.

C[C@H](NC(=O)[C@@H](NC(=O)[C@@H]1CCCN1C(=O)[C@H](CCC(=O)O)NC(=O)[C@@H]1CCCN1C(=O)CCCCNC(=S)Nc1ccc2c(c1)C1(OC2=O)c2ccc(O)cc2Oc2cc(O)ccc21)[C@@H](C)O)C(=O)N1CCCCC1C(=O)N1CC[C@H](O/N=C\c2ccccc2)[C@H]1C(=O)N[C@@H](CCC(=O)O)C(=O)N[C@@H](CCC(=O)O)C(N)=O (some centres not stated) ({Fluorescein(5-NHCS)-Ava}-PEPTA[ξPip][X24]EE-NH2) | 15

Proceeding to the next compound to report its IC50.
Query block: Entry C[C@H](NC(=O)[C@@H](NC(=O)[C@@H]1CCCN1C(=O)[C@H](CCC(=O)O)NC(=O)[C@@H]1CCCN1C(=O)CCCCNC(=S)Nc1ccc2c(c1)C1(OC2=O)c2ccc(O)cc2Oc2cc(O)ccc21)[C@@H](C)O)C(=O)N1CCCCC1C(=O)N1C[C@@H](O/N=C\c2c(F)c(F)c(F)c(F)c2F)C[C@H]1C(=O)N[C@@H](CCC(=O)O)C(=O)N[C@@H](CCC(=O)O)C(N)=O (some centres not stated) ({Fluorescein(5-NHCS)-Ava}-PEPTA[ξPip][X10]EE-NH2) has what IC50?
Result block: 139

----------
# System: Tumor susceptibility gene 101 protein (Homo sapiens, UniProt Q99816)
# Sequence (Q99816 whole entry): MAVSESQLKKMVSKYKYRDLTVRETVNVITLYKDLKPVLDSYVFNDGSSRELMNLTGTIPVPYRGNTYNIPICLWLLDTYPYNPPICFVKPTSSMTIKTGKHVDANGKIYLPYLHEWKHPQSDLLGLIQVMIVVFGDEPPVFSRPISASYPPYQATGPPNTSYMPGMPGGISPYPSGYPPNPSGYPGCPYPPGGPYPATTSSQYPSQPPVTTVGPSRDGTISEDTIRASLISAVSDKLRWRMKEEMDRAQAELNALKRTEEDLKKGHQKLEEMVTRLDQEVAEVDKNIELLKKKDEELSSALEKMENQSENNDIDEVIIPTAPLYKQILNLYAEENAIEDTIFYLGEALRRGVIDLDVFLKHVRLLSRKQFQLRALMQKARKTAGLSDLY
# Test Description: Binding affinity to Tsg101
*1 amine or outer side, *2 acyl side, *3 side chain or, on linkers, in order; H or OH if unused. Where a SMILES comes first, the peptide text is derived from it. [ ]: non-standard residue; d: D form. The star is where a group is joined. ξ: configuration not given here. Fluorescein(5-NHCS) = O=C1OC2(c3ccc(O)cc3Oc3cc(O)ccc32)c2cc(NC(=S)*)ccc21; X19 = O=C([C@@H]1C[C@@H](O/N=C\c2ccc([N+](=O)[O-])cc2)CN1[*:1])[*:2]; X48 = O=C([C@@H]1C[C@@H](O/N=C\c2c(F)c(F)c(F)c(F)c2F)CN1[*:1])[*:2]; X23 = O=C([C@@H]1[C@@H](O/N=C\c2ccc(OCc3ccccc3)cc2)CCN1[*:1])[*:2]; X9 = O=C([C@@H]1C[C@H](O/N=C\c2ccc([N+](=O)[O-])cc2)CN1[*:1])[*:2]; X33 = CC(/C=N\O[C@H]1C[C@@H](C(=O)[*:2])N([*:1])C1)=C\c1ccccc1; X36 = CC(/C=N\O[C@H]1CCN([*:1])[C@@H]1C(=O)[*:2])=C\c1ccccc1; X43 = COc1ccc(/C=N\O[C@H]2CCN([*:1])[C@@H]2C(=O)[*:2])cc1OC; X37 = O=C([C@@H]1C[C@@H](O/N=C\c2ccc(CO)o2)CN1[*:1])[*:2]; X4 = O=C([C@@H]1[C@@H](O/N=C\c2ccncc2)CCN1[*:1])[*:2]; X6 = O=C([C@@H]1C[C@@H](O/N=C\c2ccoc2)CN1[*:1])[*:2]; ξPip = O=C(O)C1CCCCN1; Ava = NCCCCC(=O)O
Listing of entries alongside the reported IC50.
# output: bare number, implied unit µM

Worked cases, answers included:
CC(/C=N\O[C@H]1C[C@@H](C(=O)N[C@@H](CCC(=O)O)C(=O)N[C@@H](CCC(=O)O)C(N)=O)N(C(=O)C2CCCCN2C(=O)[C@H](C)NC(=O)[C@@H](NC(=O)[C@@H]2CCCN2C(=O)[C@H](CCC(=O)O)NC(=O)[C@@H]2CCCN2C(=O)CCCCNC(=S)Nc2ccc3c(c2)C2(OC3=O)c3ccc(O)cc3Oc3cc(O)ccc32)[C@@H](C)O)C1)=C\c1ccccc1 (stereo not given in full) ({Fluorescein(5-NHCS)-Ava}-PEPTA[ξPip][X33]EE-NH2) | 58
C[C@H](NC(=O)[C@@H](NC(=O)[C@@H]1CCCN1C(=O)[C@H](CCC(=O)O)NC(=O)[C@@H]1CCCN1C(=O)CCCCNC(=S)Nc1ccc2c(c1)C1(OC2=O)c2ccc(O)cc2Oc2cc(O)ccc21)[C@@H](C)O)C(=O)N1CCCCC1C(=O)N1C[C@H](O/N=C\c2ccc([N+](=O)[O-])cc2)C[C@H]1C(=O)N[C@@H](CCC(=O)O)C(=O)N[C@@H](CCC(=O)O)C(N)=O (stereo not given in full) ({Fluorescein(5-NHCS)-Ava}-PEPTA[ξPip][X19]EE-NH2) | 21
C[C@H](NC(=O)[C@@H](NC(=O)[C@@H]1CCCN1C(=O)[C@H](CCC(=O)O)NC(=O)[C@@H]1CCCN1C(=O)CCCCNC(=S)Nc1ccc2c(c1)C1(OC2=O)c2ccc(O)cc2Oc2cc(O)ccc21)[C@@H](C)O)C(=O)N1CCCCC1C(=O)N1C[C@H](O/N=C\c2ccoc2)C[C@H]1C(=O)N[C@@H](CCC(=O)O)C(=O)N[C@@H](CCC(=O)O)C(N)=O (stereo not given in full) ({Fluorescein(5-NHCS)-Ava}-PEPTA[ξPip][X6]EE-NH2) | 30

Query block: Need IC50, item COc1ccc(/C=N\O[C@H]2CCN(C(=O)C3CCCCN3C(=O)[C@H](C)NC(=O)[C@@H](NC(=O)[C@@H]3CCCN3C(=O)[C@H](CCC(=O)O)NC(=O)[C@@H]3CCCN3C(=O)CCCCNC(=S)Nc3ccc4c(c3)C3(OC4=O)c4ccc(O)cc4Oc4cc(O)ccc43)[C@@H](C)O)[C@@H]2C(=O)N[C@@H](CCC(=O)O)C(=O)N[C@@H](CCC(=O)O)C(N)=O)cc1OC (stereo not given in full) ({Fluorescein(5-NHCS)-Ava}-PEPTA[ξPip][X43]EE-NH2)
Result block: 22

Query block: Param item = C[C@H](NC(=O)[C@@H](NC(=O)[C@@H]1CCCN1C(=O)[C@H](CCC(=O)O)NC(=O)[C@@H]1CCCN1C(=O)CCCCNC(=S)Nc1ccc2c(c1)C1(OC2=O)c2ccc(O)cc2Oc2cc(O)ccc21)[C@@H](C)O)C(=O)N1CCCCC1C(=O)N1CC[C@H](O/N=C\c2ccncc2)[C@H]1C(=O)N[C@@H](CCC(=O)O)C(=O)N[C@@H](CCC(=O)O)C(N)=O (stereo not given in full) ({Fluorescein(5-NHCS)-Ava}-PEPTA[ξPip][X4]EE-NH2) ; retrieve measured IC50.
Result block: 22

Query block: Item C[C@H](NC(=O)[C@@H](NC(=O)[C@@H]1CCCN1C(=O)[C@H](CCC(=O)O)NC(=O)[C@@H]1CCCN1C(=O)CCCCNC(=S)Nc1ccc2c(c1)C1(OC2=O)c2ccc(O)cc2Oc2cc(O)ccc21)[C@@H](C)O)C(=O)N1CCCCC1C(=O)N1CC[C@H](O/N=C\c2ccc(OCc3ccccc3)cc2)[C@H]1C(=O)N[C@@H](CCC(=O)O)C(=O)N[C@@H](CCC(=O)O)C(N)=O (stereo not given in full) ({Fluorescein(5-NHCS)-Ava}-PEPTA[ξPip][X23]EE-NH2) has what recorded IC50?
Result block: 18

Query block: IC50 for C[C@H](NC(=O)[C@@H](NC(=O)[C@@H]1CCCN1C(=O)[C@H](CCC(=O)O)NC(=O)[C@@H]1CCCN1C(=O)CCCCNC(=S)Nc1ccc2c(c1)C1(OC2=O)c2ccc(O)cc2Oc2cc(O)ccc21)[C@@H](C)O)C(=O)N1CCCCC1C(=O)N1C[C@H](O/N=C\c2c(F)c(F)c(F)c(F)c2F)C[C@H]1C(=O)N[C@@H](CCC(=O)O)C(=O)N[C@@H](CCC(=O)O)C(N)=O (stereo not given in full) ({Fluorescein(5-NHCS)-Ava}-PEPTA[ξPip][X48]EE-NH2) ?
Result block: 32

Query block: Which IC50 value is on record for C[C@H](NC(=O)[C@@H](NC(=O)[C@@H]1CCCN1C(=O)[C@H](CCC(=O)O)NC(=O)[C@@H]1CCCN1C(=O)CCCCNC(=S)Nc1ccc2c(c1)C1(OC2=O)c2ccc(O)cc2Oc2cc(O)ccc21)[C@@H](C)O)C(=O)N1CCCCC1C(=O)N1C[C@@H](O/N=C\c2ccc([N+](=O)[O-])cc2)C[C@H]1C(=O)N[C@@H](CCC(=O)O)C(=O)N[C@@H](CCC(=O)O)C(N)=O (stereo not given in full) ({Fluorescein(5-NHCS)-Ava}-PEPTA[ξPip][X9]EE-NH2) ?
Result block: 91

Query block: What value of IC50 has been recorded for this entry: C[C@H](NC(=O)[C@@H](NC(=O)[C@@H]1CCCN1C(=O)[C@H](CCC(=O)O)NC(=O)[C@@H]1CCCN1C(=O)CCCCNC(=S)Nc1ccc2c(c1)C1(OC2=O)c2ccc(O)cc2Oc2cc(O)ccc21)[C@@H](C)O)C(=O)N1CCCCC1C(=O)N1C[C@H](O/N=C\c2ccc(CO)o2)C[C@H]1C(=O)N[C@@H](CCC(=O)O)C(=O)N[C@@H](CCC(=O)O)C(N)=O (stereo not given in full) ({Fluorescein(5-NHCS)-Ava}-PEPTA[ξPip][X37]EE-NH2)
Result block: 26

Query block: # query: IC50 of entry CC(/C=N\O[C@H]1CCN(C(=O)C2CCCCN2C(=O)[C@H](C)NC(=O)[C@@H](NC(=O)[C@@H]2CCCN2C(=O)[C@H](CCC(=O)O)NC(=O)[C@@H]2CCCN2C(=O)CCCCNC(=S)Nc2ccc3c(c2)C2(OC3=O)c3ccc(O)cc3Oc3cc(O)ccc32)[C@@H](C)O)[C@@H]1C(=O)N[C@@H](CCC(=O)O)C(=O)N[C@@H](CCC(=O)O)C(N)=O)=C\c1ccccc1 (stereo not given in full) ({Fluorescein(5-NHCS)-Ava}-PEPTA[ξPip][X36]EE-NH2)
Result block: 12
